- Test system: NCI-H460
- assay procedure: NCI tumour cell line growth inhibition, 48 h
Calls of active or inactive are those of the source. No stated cut-off is given here; in the data, active = GI50 up to about 1.1 µM and inactive = higher.
Parameter call: string, one of active, inactive

Worked cases, answers included:
molecule	assigned label
O=C1CCCCC1=C(I)I	inactive
COC(=O)/C=C\C(C#N)(C#N)/N=C/c1ccccc1	inactive
O=c1/c(=C/c2c(O)ccc3ccccc23)sc2nc3ccccc3n12	inactive

Query: Hi, do you know how COc1ccc(/C(=C/n2ccnc2)C(O)c2ccc(OC)c(OC)c2)cc1OC (centres undefined) came out in this test?
Response: inactive

Query: GET /call?item= c1ccc2c(c1)CCc1[nH]c3c(c1-2)-c1ccccc1CC3 returns the recorded outcome of this test.
Response: inactive

Query: I would be grateful if you could indicate the recorded call for N#Cc1cc([N+](=O)[O-])ccc1NC(=O)C(=O)Nc1n[nH]c(N)n1 .
Response: inactive

Query: Any idea what this test logged for CC(=O)OCC(OC(C)=O)C(OC(C)=O)C(OC(C)=O)C(C=NN(C(C)=O)S(=O)(=O)c1ccc(/C=C2\NC(=O)NC2=O)cc1)OC(C)=O (centres undefined) ?
Response: inactive

Query: Tell me the assay call for CN(C)c1ccc(/C=C2\N=C(c3ccc(N)cc3)OC2=O)cc1 please.
Response: inactive

Query: Hey, what did the test say about CCOC(OC(C)=O)[C@@H]1C=C[C@H](C)N(c2ccc([N+](=O)[O-])cc2)O1 (some centres undefined) ?
Response: inactive

Query: Could you please tell me the result logged for CCOC(=O)c1cccc(/N=N/Nc2cccc(C(=O)OCC)c2)c1 in this assay?
Response: inactive

Query: Could you please tell me the result logged for Cc1cc(S(=O)(=O)NC2=Nc3ccccc3C(c3ccccc3)N2)c(S)cc1Cl (centres undefined) in this assay?
Response: inactive

Query: Recorded test outcome, item O=C1C/C(=C\c2ccccc2)C(=O)c2ccccc2N1
Response: inactive

Query: Entry O=C(O)CN1C(=O)CN=C(c2ccccn2)c2cc(Cl)ccc21 : call = ?
Response: inactive

Query: Assay result, entry Cc1cnc(SCCN2CCN(C)CC2)nc1-c1cc2ccccc2s1 — outcome?
Response: inactive

Query: Hi, sorry to bother you, what did the test record for O=C(NC1CCCCC1)N1CCNC1=S ?
Response: inactive

====

- Tested on: NCI-H522
- assay procedure: NCI tumour cell line growth inhibition, 48 h
Activity calls are given as the source filed them. No stated cut-off is given here; in the data, active = GI50 up to about 1.1 µM and inactive = higher.
Your answer must be one of the following: active, inactive

compound	target of assay	assigned label
Oc1ccc(C(c2ccc(O)cc2)c2ccc(O)cc2)cc1	NCI-H522	inactive
CC(=O)O[C@H]1C(=O)[C@@]2(C)[C@H]([C@H](OC(=O)c3ccccc3)[C@]3(O)C[C@H](OC(=O)[C@H](O)[C@@H](NC(=O)c4ccc(N)cc4)c4ccccc4)C(C)=C1C3(C)C)[C@]1(OC(C)=O)CO[C@@H]1C[C@@H]2O	NCI-H522	active
CCCCCCCCCCCCCCCCOP(=O)(O)OP(=O)(O)OCC1OC(n2cnc3c(N)ncnc32)C(O)C1O (stereo not given)	NCI-H522	inactive
O=C1C/C(=C\c2ccccc2)C(=O)c2ccccc2N1	NCI-H522	inactive
CC(=O)CC(=O)Nc1ccccc1[N+](=O)[O-]	NCI-H522	inactive

Query: Per the records of this test, what outcome belongs to CC(C)C1NC(=O)[C@H](C)OC(=O)[C@@H](C(C)C)NC(=O)[C@@H](C)OC(=O)C(C(C)C)NC(=O)[C@H](C)OC1=O (stereo not given in full) ?
Response: inactive

Query: Per the records of this test, what outcome belongs to Nc1nc(-c2ccco2)cc(-c2ccc(CO)o2)n1 ?
Response: inactive

====

- Tested on: A549
- assay procedure: NCI tumour cell line growth inhibition, 48 h
Activity calls are given as the source filed them. Rule as the data show it: active = GI50 up to about 1.1 µM and inactive = higher.
measure: GI50

Solved cases (5 shown):
> print(dat)
                                   compound  measure      endpoint.result
1  CC1=C/C(=C2/N=C(N(C)C)SS2)C(C)=N1.[O-][Cl+3]([O-])([O-])O     GI50  > 100 µM (inactive)
2  Cc1cc2ccccc2c[n+]1CC(=O)CC([O-])(C(F)(F)F)C(F)(F)F     GI50  > 100 µM (inactive)
3  CCOC(=O)c1ccc(/N=N/c2cc(C(=O)OCC)ccc2O)cc1     GI50  > 100 µM (inactive)
4  C[C@]12C=CC(=O)C=C1CC[C@@H]1[C@@H]2CC[C@]2(C)OC(=O)CC[C@@H]12 [TESTOLACTONE]     GI50    447 µM (inactive)
5  CCOC(=O)C1Sc2ccccc2N=C1C (centres undefined)     GI50  > 100 µM (inactive)

Query: For the compound O=C1CC(=O)N(c2ccccc2)N1/C(=C/c1ccccc1)c1ccccc1 , what GI50 is on record?
Response: 26.1 µM (inactive)

Query: GI50 lookup needed for C1=Cc2nc1c(-c1ccncc1)c1ccc([n-]1)c(-c1ccncc1)c1nc(c(-c3ccncc3)c3ccc([n-]3)c2-c2ccncc2)C=C1.[Zn+2] , thanks.
Response: > 100 µM (inactive)

Query: Which GI50 is reported for this compound? O=C(COc1ccc(OCC(=O)N2C(=O)CN(c3ccccc3)C2=S)cc1)N1C(=O)CN(c2ccccc2)C1=S
Response: > 56.1 µM (inactive)

Query: Please give the measured GI50 for this compound: C=C1C(C(=O)O)C1C(=O)O (centres undefined)
Response: > 100 µM (inactive)

====

- System: SF-539
- assay procedure: NCI tumour cell line growth inhibition, 48 h
Activity calls are given as the source filed them. Rule as the data show it: active = GI50 up to about 1.1 µM and inactive = higher.
Below is a list of entries, each paired with its recorded GI50 value.

Example entries and their recorded answers appear below.
> print(dat)
                                   compound  measure      endpoint.result
1  O=C(O)/C=C(/C(=O)O)C12CCN3CC4=CCOC5CC(=O)NC1C5C4CC32 (stereo unspecified)     GI50  > 100 µM (inactive)
2                 OCCCCCNc1ccnc2cc(Cl)ccc12     GI50  > 100 µM (inactive)
3     N#Cc1ccc(/C=N\N2C(=O)c3ccccc3C2=O)cc1     GI50  > 100 µM (inactive)
4  CC(=O)/N=S(/NC(=O)c1ccc(C)cc1)C(Cl)(Cl)Cl (stereo unspecified)     GI50   77.1 µM (inactive)
5  COc1cc2c(cc1O)[C@H](C)C(c1ccccc1OC)O2 (stereo partly specified)     GI50   5.11 µM (inactive)

Query: What GI50 appears in the records for this compound with SF-539? Cc1ccc(NCC(=O)N2CC(=O)Nc3ccccc32)c(C)c1
Response: > 100 µM (inactive)

====

- Tested on: UACC-257
- assay procedure: NCI tumour cell line growth inhibition, 48 h
Active and inactive are the calls of the source. Rule as the data show it: active = GI50 up to about 1.1 µM and inactive = higher.
Entries and their GI50 values follow.

In the examples that follow, each entry is paired with its recorded GI50.
> print(dat)
                                   molecule  measure      endpoint.result
1  COc1ccc(C(=O)O/N=C2/CCCCC2CN(C)C)cc1 (configuration not stated)     GI50  > 100 µM (inactive)
2              O=C1c2ccccc2C(=O)c2[nH]cnc21     GI50     23 µM (inactive)
3     N=C(N)c1ccc(/C=C/c2ccc(C(=N)N)cc2)cc1     GI50   65.9 µM (inactive)
4  O=C1Nc2ccccc2C1Cc1ccccc1 (configuration not stated)     GI50  > 100 µM (inactive)
5  COc1ccc(N2C(=O)C3c4[nH]c5ccccc5c4C4CCCCC4C3C2=O)cc1 (configuration not stated)     GI50   27.8 µM (inactive)

Query: // GI50 lookup, key: CCOC(=O)c1c[nH]c2c(Sc3ccccc3)nccc2c1=O
Response: > 100 µM (inactive)

Query: Look at this molecule and give its reported GI50. COc1ccc(-c2cc(-c3ccccc3)c(C#N)c(=O)n2C2OC(CO)C(O)C(O)C2O)cc1 (configuration not stated)
Response: > 100 µM (inactive)

Query: GI50 lookup needed for [O-][S+]1c2ccccc2NC(c2ccc3ccccc3c2)CC1c1ccccc1 (configuration not stated) , thanks.
Response: 32.4 µM (inactive)

Query: What does the record list as GI50 for CS(=O)(=O)c1cc(=O)c2ccccc2s1 ?
Response: 3.54 µM (inactive)

Query: Quick check: GI50 of COc1cc2ccnc3c(=C(SC)SC)c(=O)c(c1OC)c23 ?
Response: 13.6 µM (inactive)

Query: Given COc1ccc2c(c1)C(=O)c1ccc(OC)cc1C2=S , state its recorded GI50.
Response: > 100 µM (inactive)

Query: Which measured GI50 value corresponds to O=C(/C=C/c1cccc(Oc2ccccc2)c1)NCc1ccc(C(=O)NCc2ccccc2)cc1 ?
Response: > 100 µM (inactive)

Reference for the values: ChEMBL document CHEMBL1201862
